So I've got a bunch of compounds here, and I need their z-score values.
# target_or_system: NADPH oxidase 4 (Homo sapiens) (UniProt Q9NPH5)
# Sequence (Q9NPH5 whole entry, looked up): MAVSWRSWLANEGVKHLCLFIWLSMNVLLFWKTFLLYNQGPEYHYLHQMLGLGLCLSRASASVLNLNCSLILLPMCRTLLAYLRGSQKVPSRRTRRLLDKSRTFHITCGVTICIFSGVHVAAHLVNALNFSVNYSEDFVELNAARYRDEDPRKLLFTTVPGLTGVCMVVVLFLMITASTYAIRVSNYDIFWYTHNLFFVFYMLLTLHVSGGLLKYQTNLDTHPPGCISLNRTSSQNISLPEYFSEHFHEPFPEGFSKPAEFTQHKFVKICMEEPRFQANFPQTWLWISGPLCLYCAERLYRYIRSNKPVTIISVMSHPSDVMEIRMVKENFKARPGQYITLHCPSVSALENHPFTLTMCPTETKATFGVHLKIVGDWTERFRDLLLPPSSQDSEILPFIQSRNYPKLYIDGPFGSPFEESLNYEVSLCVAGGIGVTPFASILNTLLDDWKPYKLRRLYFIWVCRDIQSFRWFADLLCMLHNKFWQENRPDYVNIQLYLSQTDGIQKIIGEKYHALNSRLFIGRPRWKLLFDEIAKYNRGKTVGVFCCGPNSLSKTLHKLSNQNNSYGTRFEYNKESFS
# assay_info: compounds shifting NOX4 Amplex Red fluorescence – cell-based, HEK293-NOX4, tetracycline-induced, NOX inhibitor project, primary screen (AID 1160)
# assay_setup: HEK293-NOX4, Amplex Red H2O2 fluorescence, 45 min; higher = more signal, called active from +8 up or from −8 down
Format: numeric value only, no unit, no commentary.

Give the measured z-score for O=C(NCCN1CCOCC1)[C@@H]1c2ccccc2C(=O)N(Cc2cc(C(F)(F)F)cc(C(F)(F)F)c2)[C@H]1c1ccc(CO)cc1
0.271

Indicate the recorded z-score value for this compound: CC=CC(O)C1C=CC2C(=O)N(C)C(=O)C2N1N(c1ccccc1)c1ccccc1 (stereo unspecified)
-0.176

Quickly give me recorded z-score for COc1ccc([Si](C)(C)[C@@H]2[C@@H](CCn3cc(CCO)nn3)O[C@]3(C(=O)N(Cc4cccc(N5C(=O)c6cccc7cccc5c67)c4)c4ccccc43)[C@H]2C)cc1
1.76

Please indicate z-score recorded for CC(=O)NCCCC[C@@H]1NC(=O)[C@H]2C[C@@H](C(=O)NCCCCCNC(=O)CS)[C@@H](c3ccc(O)cc3)N2C1=O
-2.06

Provide one value: measured z-score of CS(=O)(=O)CCOC(=O)C1=CC(CCCO)=CC(c2ccc(CN3CCCC3)cc2)N(Cc2cccc(OC(F)(F)F)c2)C=C1C(=O)OCCS(C)(=O)=O (stereo unspecified)
-0.764

Hello, please tell me recorded z-score for this one: COC(=O)C(CC#Cc1ccc2c(c1)[C@]1(C(=O)N2)[C@H](c2ccccc2OCCO)N2[C@H](c3ccccc3)[C@H](c3ccccc3)OC(=O)[C@H]2[C@@H]1C(=O)O)C(=O)OC
-0.0833

Where do these numbers come from? They come from PubChem BioAssay.
